Property: CC50; scope: individual compounds
- procedure.details: in vitro
- applied.conditions: dog
endpoint: CC50

- CCP(=O)(CC)c1cn2c(c(O)c1=O)C(=O)N1CCOC[C@H]1N2[C@@H]1c2ccccc2SCc2c1ccc(F)c2F: > 100 µM
- CP(C)(=O)c1cn2c(c(O)c1=O)C(=O)N1CCOC[C@H]1N2[C@@H]1c2ccccc2SCc2c1ccc(F)c2F: > 100 µM
- O=C1c2c(O)c(=O)ccn2N([C@@H]2c3ccccc3SCc3c2ccc(F)c3F)[C@@H]2COCCN12 [Baloxavir acid, reference compound]: 12 µM
- O=C1c2c(O)c(=O)ccn2N([C@@H]2c3ccccc3[Se]Cc3c2ccc(F)c3F)[C@@H]2COCCN12: 13 µM
- CCC(CC)O[C@@H]1C=C(C(=O)O)C[C@H](N)[C@H]1NC(C)=O [Oseltamivir acid, reference compound]: > 100 µM

----------
- procedure.details: in vivo
- applied.conditions: male, cynomolgus monkey, iv, 0.25 mg/kg
endpoint: half-life (h)

- O=C1c2c(O)c(=O)ccn2N([C@@H]2c3ccccc3[Se]Cc3c2ccc(F)c3F)[C@@H]2COCCN12 [Compound B-1]: 11

----------
- procedure.details: Pharmacokinetics in Rats
- Assay type: in vivo
- applied.conditions: Sprague-Dawley (SD), rat; IV 0.25 mg/kg, non-fasted male SD rats, plasma B-1
endpoint: AUC(0-inf)

• O=C1c2c(O)c(=O)ccn2N([C@@H]2c3ccccc3[Se]Cc3c2ccc(F)c3F)[C@@H]2COCCN12 = 92 ng·h/mL

----------
- procedure.details: Liver microsomal stability
- applied.conditions: cynomolgus monkey, liver microsomes
endpoint: microsomal CLint (µL/min/mg)

- O=C1c2c(O)c(=O)ccn2N(C2c3ccccc3[Se]Cc3c2ccc(F)c3F)C2COCCN12 (single isomer, unassigned) [Compound A-1-P2]: 16

----------
- procedure.details: Liver microsomal stability
- applied.conditions: human, liver microsomes
endpoint: microsomal CLint (µL/min/mg)

• O=C1c2c(O)c(=O)ccn2N(C2c3ccccc3[Se]Cc3c2ccc(F)c3F)C2COCCN12 (single isomer, unassigned) [Compound A-1-P2] = 2.2

----------
- procedure.details: Liver microsomal stability
- applied.conditions: human, liver microsomes
endpoint: half-life (h)

• O=C1c2c(O)c(=O)ccn2N(C2c3ccccc3[Se]Cc3c2ccc(F)c3F)C2COCCN12 (single isomer, unassigned) [Compound A-1-P2] = 60.9

----------
- procedure.details: in vivo
- applied.conditions: male, cynomolgus monkey, iv, 0.25 mg/kg
endpoint: AUC(0-inf) (ng·h/mL)

* O=C1c2c(O)c(=O)ccn2N([C@@H]2c3ccccc3[Se]Cc3c2ccc(F)c3F)[C@@H]2COCCN12 | 257

----------
- procedure.details: Liver microsomal stability
- applied.conditions: dog, liver microsomes
endpoint: microsomal CLint (µL/min/mg)

* O=C1c2c(O)c(=O)ccn2N(C2c3ccccc3[Se]Cc3c2ccc(F)c3F)C2COCCN12 (single isomer, unassigned) [Compound A-1-P2] | 4.5

----------
- procedure.details: Liver microsomal stability
- applied.conditions: rat, liver microsomes
endpoint: microsomal CLint (µL/min/mg)

• O=C1c2c(O)c(=O)ccn2N(C2c3ccccc3[Se]Cc3c2ccc(F)c3F)C2COCCN12 (single isomer, unassigned) [Compound A-1-P2] = 8.3

----------
- procedure.details: Liver microsomal stability
- applied.conditions: cynomolgus monkey, liver microsomes
endpoint: half-life (h)

• O=C1c2c(O)c(=O)ccn2N(C2c3ccccc3[Se]Cc3c2ccc(F)c3F)C2COCCN12 (single isomer, unassigned) [Compound A-1-P2] = 1.42
